protocol details: Solubility of nepafenac at reflux temperature in crystallization solvent
Type: physicochemical
run parameters: 2-propanol:water 60:40, organic solvent or mixture, thermodynamic from solid, in 2-propanol:water 60:40 at reflux; read-out: Solubility
attribute measured: solubility (mg/mL)

>>> assay_value("NC(=O)Cc1cccc(C(=O)c2ccccc2)c1N [Example 4, 2-amino-3-benzoylbenzeneacetamide]")
32.6

###

protocol details: Particle size distribution (Malvern Mastersizer S)
Assay type: physicochemical
run parameters: Table 3, micronized samples; unit inferred
attribute measured: D50 (µm)

>>> assay_value("NC(=O)Cc1cccc(C(=O)c2ccccc2)c1N [Batch 1, 2-amino-3-benzoylbenzeneacetamide]")
21.4
>>> assay_value("NC(=O)Cc1cccc(C(=O)c2ccccc2)c1N [Batch 2, 2-amino-3-benzoylbenzeneacetamide]")
19.8
>>> assay_value("NC(=O)Cc1cccc(C(=O)c2ccccc2)c1N [Batch 3, 2-amino-3-benzoylbenzeneacetamide]")
14.9

###

protocol details: Solubility of nepafenac at reflux temperature in crystallization solvent
Type: physicochemical
run parameters: 2-propanol:water 80:20, organic solvent or mixture, thermodynamic from solid, in 2-propanol:water 80:20 at reflux; read-out: Solubility
attribute measured: solubility (mg/mL)

>>> assay_value("NC(=O)Cc1cccc(C(=O)c2ccccc2)c1N [Example 2, 2-amino-3-benzoylbenzeneacetamide]")
78.6

###

protocol details: Optical microscopy: crystal shape and aspect ratio
Assay type: physicochemical
run parameters: optical microscopy, 40× magnification
Procedure: The “aspect ratio” of a crystal is defined as the ratio of its longest dimension to its shortest dimension. As used herein, “aspect ratio” is the quotient of the division of a crystal's length by its width. […] The aspect ratio of crystals was obtained from micrographs of a batch of crystal. […] The average aspect ratio for each batch was determined by dividing the sum of crystal aspect ratios by the number of crystals measured.
attribute measured: Crystal shape

>>> assay_value("NC(=O)Cc1cccc(C(=O)c2ccccc2)c1N [Comparative Example 3, 2-amino-3-benzoylbenzeneacetamide, reference compound]")
"Needle-like crystals"
>>> assay_value("NC(=O)Cc1cccc(C(=O)c2ccccc2)c1N [Comparative Example 2, 2-amino-3-benzoylbenzeneacetamide, reference compound]")
"Needle-like crystals"
>>> assay_value("NC(=O)Cc1cccc(C(=O)c2ccccc2)c1N [Example 2, 2-amino-3-benzoylbenzeneacetamide]")
"Plate"
>>> assay_value("NC(=O)Cc1cccc(C(=O)c2ccccc2)c1N [Example 3, 2-amino-3-benzoylbenzeneacetamide]")
"Plate"
>>> assay_value("NC(=O)Cc1cccc(C(=O)c2ccccc2)c1N [Example 4, 2-amino-3-benzoylbenzeneacetamide]")
"Plate"
>>> assay_value("NC(=O)Cc1cccc(C(=O)c2ccccc2)c1N [Example 1, 2-amino-3-benzoylbenzeneacetamide]")
"Plate"

###

protocol details: Particle size distribution (Malvern Mastersizer S)
Format: physicochemical
run parameters: by volume
attribute measured: D50 (μm)

>>> assay_value("NC(=O)Cc1cccc(C(=O)c2ccccc2)c1N [Comparative Example 3, 2-amino-3-benzoylbenzeneacetamide, reference compound]")
85.8
>>> assay_value("NC(=O)Cc1cccc(C(=O)c2ccccc2)c1N [Example 8, 2-amino-3-benzoylbenzeneacetamide]")
5.8
>>> assay_value("NC(=O)Cc1cccc(C(=O)c2ccccc2)c1N [Example 6, 2-amino-3-benzoylbenzeneacetamide]")
144.9
>>> assay_value("NC(=O)Cc1cccc(C(=O)c2ccccc2)c1N [Example 10, 2-amino-3-benzoylbenzeneacetamide]")
12.1
>>> assay_value("NC(=O)Cc1cccc(C(=O)c2ccccc2)c1N [Example 7, 2-amino-3-benzoylbenzeneacetamide, reference compound]")
6.1

###

protocol details: Solubility of nepafenac at reflux temperature in crystallization solvent
Type: physicochemical
run parameters: 2-propanol:water 70:30, organic solvent or mixture, thermodynamic from solid, in 2-propanol:water 70:30 at reflux; read-out: Solubility
attribute measured: solubility (mg/mL)

>>> assay_value("NC(=O)Cc1cccc(C(=O)c2ccccc2)c1N [Example 3, 2-amino-3-benzoylbenzeneacetamide]")
79.6

###

protocol details: Solubility of nepafenac at reflux temperature in crystallization solvent
Format: physicochemical
run parameters: 2-propanol:water 90:10, organic solvent or mixture, thermodynamic from solid, in 2-propanol:water 90:10 at reflux; read-out: Solubility
attribute measured: solubility (mg/mL)

>>> assay_value("NC(=O)Cc1cccc(C(=O)c2ccccc2)c1N [Example 1, 2-amino-3-benzoylbenzeneacetamide]")
55.2

###

Listed compounds paired with reported D90
protocol details: Particle size distribution (Malvern Mastersizer S)
Format: physicochemical
run parameters: by volume
attribute measured: D90

>>> assay_value("NC(=O)Cc1cccc(C(=O)c2ccccc2)c1N [Example 6, 2-amino-3-benzoylbenzeneacetamide]")
"401.8 μm"
>>> assay_value("NC(=O)Cc1cccc(C(=O)c2ccccc2)c1N [Example 10, 2-amino-3-benzoylbenzeneacetamide]")
"27.5 μm"
>>> assay_value("NC(=O)Cc1cccc(C(=O)c2ccccc2)c1N [Example 8, 2-amino-3-benzoylbenzeneacetamide]")
"18.9 μm"
>>> assay_value("NC(=O)Cc1cccc(C(=O)c2ccccc2)c1N [Example 7, 2-amino-3-benzoylbenzeneacetamide, reference compound]")
"17.1 μm"
>>> assay_value("NC(=O)Cc1cccc(C(=O)c2ccccc2)c1N [Comparative Example 3, 2-amino-3-benzoylbenzeneacetamide, reference compound]")
"491.1 μm"

###

protocol details: Solubility of nepafenac at reflux temperature in crystallization solvent
Assay type: physicochemical
run parameters: water, 100 °C, water, thermodynamic from solid, in water at reflux temperature; read-out: Solubility
attribute measured: solubility (µg/mL)

>>> assay_value("NC(=O)Cc1cccc(C(=O)c2ccccc2)c1N [nepafenac, 2-amino-3-benzoylbenzeneacetamide, reference compound]")
700

###

protocol details: Solubility of nepafenac at reflux temperature in crystallization solvent
Format: physicochemical
run parameters: mixtures of 2-propanol with up to 40% of water, organic solvent or mixture, thermodynamic from solid, in mixtures of 2-propanol with up to 40% of water at reflux temperature; read-out: Solubility
attribute measured: solubility

>>> assay_value("NC(=O)Cc1cccc(C(=O)c2ccccc2)c1N [nepafenac, 2-amino-3-benzoylbenzeneacetamide, reference compound]")
"30 to 80 mg/mL"

###

Listed compounds paired with reported D10
protocol details: Particle size distribution (Malvern Mastersizer S)
Type: physicochemical
run parameters: Table 3, micronized samples; unit inferred
attribute measured: D10 (µm)

>>> assay_value("NC(=O)Cc1cccc(C(=O)c2ccccc2)c1N [Batch 3, 2-amino-3-benzoylbenzeneacetamide]")
4.4
>>> assay_value("NC(=O)Cc1cccc(C(=O)c2ccccc2)c1N [Batch 2, 2-amino-3-benzoylbenzeneacetamide]")
4.8
>>> assay_value("NC(=O)Cc1cccc(C(=O)c2ccccc2)c1N [Batch 1, 2-amino-3-benzoylbenzeneacetamide]")
6.1

###

protocol details: Particle size distribution (Malvern Mastersizer S)
Type: physicochemical
run parameters: by volume
Listed compounds paired with reported D10
attribute measured: D10 (μm)

>>> assay_value("NC(=O)Cc1cccc(C(=O)c2ccccc2)c1N [Comparative Example 3, 2-amino-3-benzoylbenzeneacetamide, reference compound]")
23.6
>>> assay_value("NC(=O)Cc1cccc(C(=O)c2ccccc2)c1N [Example 6, 2-amino-3-benzoylbenzeneacetamide]")
30.5
>>> assay_value("NC(=O)Cc1cccc(C(=O)c2ccccc2)c1N [Example 10, 2-amino-3-benzoylbenzeneacetamide]")
2.2
>>> assay_value("NC(=O)Cc1cccc(C(=O)c2ccccc2)c1N [Example 7, 2-amino-3-benzoylbenzeneacetamide, reference compound]")
1.3
>>> assay_value("NC(=O)Cc1cccc(C(=O)c2ccccc2)c1N [Example 8, 2-amino-3-benzoylbenzeneacetamide]")
1.2
